I'd appreciate it if you could supply YAP1 (% UT) values for the items below.
# Test system: Yap1 mRNA
# experimental protocol: Antisense inhibition of human Yap1 in SNU-449 cells by modified oligonucleotides, single dose (Example 5, RTS36584)
# Format: cell-based
# assay context: Table 50; Yap1 mRNA remaining as percent of untreated control (UT), SNU-449 cells, single dose
Strand notation (5' to 3'): a small letter for the sugar, then the base; units joined by * are phosphorothioate-linked, units joined directly phosphodiester-linked; [ ] holds rarer units or linkages, { } end groups; capitals alone tell only the bases. e = 2'-O-(2-methoxyethyl) (MOE); k = constrained ethyl (cEt); [5mC] = 5-methylcytosine; d = 2'-deoxy (DNA); m = 2'-O-methyl
Please reply with the bare figure in % UT and do not write the unit itself.

Record request: YAP1 (% UT) value, item 1198616 (antisense kT*kT*kT*dA*dA*dA*dG*dT*dG*dT*dA*dT*kG*kT*k[5mC]*eA) [Compound 1198616]
16

Consider the substance shown here: 1198626 (kA*kG*kA*d[5mC]*dT*dA*dA*dG*dT*dA*dA*dG*kG*kT*kT*eT; antisense) [Compound 1198626] What is its recorded YAP1 (% UT)?
99

Look up YAP1 (% UT): 1198608 (antisense kT*kA*kT*dG*dT*dA*dA*dT*dA*dT*dT*dG*k[5mC]*kA*kA*eT) [Compound 1198608]
83

Look up YAP1 (% UT) for this substance: 1198605 (antisense kG*kT*kA*dA*dT*dA*dT*dT*dG*d[5mC]*dA*dA*kT*k[5mC]*kT*eG) [Compound 1198605]
7

Recorded YAP1 (% UT) for 1198562 (antisense kA*kG*kG*dT*dA*dT*dA*dA*d[5mC]*dT*dG*dG*kG*k[5mC]*kA*eA) [Compound 1198562] , please?
30

Entry 1197280 (kT*kG*kT*d[5mC]*mU*d[5mC]*dA*dT*dG*d[5mC]*d[5mC]*dT*dT*kA*kT*kA; antisense) [Compound 1197280] : reported YAP1 (% UT) = ?
53

----------
# System: Yap1 mRNA
# experimental protocol: Antisense inhibition of human Yap1 in A-431 cells by cEt gapmers, single dose (Example 2, RTS4814)
# Type: cell-based
# assay context: Table 32; Yap1 mRNA, percent of untreated control; 3-10-3 cEt gapmers targeting SEQ ID NO.: 1, and 2
Strand notation (5' to 3'): a small letter for the sugar, then the base; units joined by * are phosphorothioate-linked, units joined directly phosphodiester-linked; [ ] holds rarer units or linkages, { } end groups; capitals alone tell only the bases. k = constrained ethyl (cEt); [5mC] = 5-methylcytosine; d = 2'-deoxy (DNA)
Range-based classes on measured YAP1 (% UTC): low value (below 8 % UTC), medium value (8 % UTC to below 70 % UTC), high value (70 % UTC or more)

Sort 1076370 (antisense kG*kA*kT*dT*dA*dT*dT*d[5mC]*dG*dG*dT*dA*dT*kT*kT*kT) [compound 1076370] into one of the categories.
low value

Looking at 1074962 (antisense kA*kG*kG*d[5mC]*dA*dA*dG*d[5mC]*dA*dG*d[5mC]*dT*dA*kA*kA*kT) [compound 1074962] , which class would you pick?
high value

Pick a category. Item: 1076306 (k[5mC]*kT*kT*dT*dA*d[5mC]*dT*dA*d[5mC]*dT*dA*dA*dT*kA*kA*kG; antisense) [compound 1076306]
high value

Which of the defined bands does the recorded YAP1 (% UTC) of 1075858 (antisense k[5mC]*k[5mC]*kT*dT*dA*dA*dA*d[5mC]*dA*dA*dT*d[5mC]*d[5mC]*k[5mC]*kT*kA) [compound 1075858] sit within?
medium value

Which band does 1074546 (k[5mC]*kA*k[5mC]*dT*d[5mC]*d[5mC]*d[5mC]*d[5mC]*dT*dA*dG*dG*d[5mC]*kA*k[5mC]*kT; antisense) [compound 1074546] fall in?
medium value

# bin label for 1076466 (kA*kT*kT*dT*dA*dG*dA*dG*d[5mC]*dT*dT*dA*dA*kG*kG*kA; antisense) [compound 1076466]
low value

Place this substance in its band: 1074450 (kA*k[5mC]*kT*dA*dA*dT*dG*dA*dT*dA*dG*d[5mC]*dA*k[5mC]*kT*kA; antisense) [compound 1074450]
low value

Which class holds 1076146 (kG*k[5mC]*kT*dA*dA*dA*dA*d[5mC]*dT*dT*dT*d[5mC]*dA*kT*k[5mC]*k[5mC]; antisense) [compound 1076146] ?
medium value

Into which bin does this substance go? 1075058 (antisense kA*kT*kT*dA*d[5mC]*dA*dA*dA*dG*dT*dA*dG*d[5mC]*kA*kA*k[5mC]) [compound 1075058]
medium value

For this substance, which bin applies? 1076338 (antisense k[5mC]*kA*kT*dT*dA*dA*dA*d[5mC]*d[5mC]*dA*dG*dG*dG*kA*k[5mC]*kT) [compound 1076338]
medium value

State the class of the substance shown: 1075730 (kG*kT*kA*dT*dT*dT*dA*dA*dA*dA*dA*dT*dA*kG*k[5mC]*kG; antisense) [compound 1075730]
high value

The values you see were collected from patent US11214803B2.
